Target: consensus OR4C15 (Homo sapiens, UniProt Q8NGM1, A218G/A270V/E23K/G63A/I200A/I247V/I275T/L152F/L222F/L266F/M197L/N174D/N209I/N278T/Q295N/R137W/R299K/T258A/T88R/V55G/V87E/W233R)
Construct: Flag (N); Rho tag (N); expressed in transfected cells; host or cells: HEK293
Sequence (Q8NGM1 1-311 with the stated changes limits assumed): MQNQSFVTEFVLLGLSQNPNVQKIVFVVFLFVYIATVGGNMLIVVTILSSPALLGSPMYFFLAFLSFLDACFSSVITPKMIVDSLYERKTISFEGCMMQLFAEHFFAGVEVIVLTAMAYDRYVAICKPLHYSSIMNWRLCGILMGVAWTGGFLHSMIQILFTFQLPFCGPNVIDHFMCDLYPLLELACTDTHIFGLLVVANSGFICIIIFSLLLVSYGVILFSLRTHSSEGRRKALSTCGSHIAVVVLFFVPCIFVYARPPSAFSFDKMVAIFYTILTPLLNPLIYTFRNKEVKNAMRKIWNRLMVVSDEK
Assay: Luciferase assay, sulfur compounds
Assay type: cell-based
Settings: consensus OR4C15; 30 μM CuCl2; read-out: EC50(μM) with 30 μM CuCl2
Value Kind: EC50 (µM)

1. CSC [dimethyl sulfide] = 414

---

Target: consensus OR4K17 (Homo sapiens, UniProt Q8NGC6, A163V/E24Q/F120Y/F158L/G263S/I192T/I205M/I296T/I46V/K226R/L86V/P230S/S297A/V197I/V23I/V81M/V91T)
Construct: expressed in transfected cells; host or cells: HEK293
Sequence (Q8NGC6 with tags, fused parts or gaps with the stated changes): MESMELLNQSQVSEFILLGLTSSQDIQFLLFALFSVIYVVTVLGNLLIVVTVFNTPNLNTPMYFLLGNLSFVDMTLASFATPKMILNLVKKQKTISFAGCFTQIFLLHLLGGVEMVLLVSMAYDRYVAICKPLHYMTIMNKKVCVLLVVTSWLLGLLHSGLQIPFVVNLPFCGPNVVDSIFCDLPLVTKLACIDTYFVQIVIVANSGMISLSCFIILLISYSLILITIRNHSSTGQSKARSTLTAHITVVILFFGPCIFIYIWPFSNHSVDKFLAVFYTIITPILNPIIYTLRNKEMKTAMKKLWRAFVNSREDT
Test: Luciferase assay, sulfur compounds
Format: cell-based
Value Kind: EC50 (µM)

1. CSSC [dimethyl disulfide] = 568
